# Test system: GSK-3α/β
# test.details: Kinase inhibition assay, GSK-3α/β
# Format: biochemical
reported.metric: Inhibitory activity against GSK3α/β (in words)

[[record]]
molecule = "COc1ccc2c3ccnc(C)c3n(Cc3ccccc3)c2c1 [Compound 11d, 9-Benzyl-7-methoxy-1-methyl-β-carboline]"
meas_value = "totally inactive"

[[record]]
molecule = "CCn1c2cc(OC)ccc2c2ccnc(C)c21 [Compound 11c, 9-Ethyl-7-methoxy-1-methyl-β-carboline]"
meas_value = "totally inactive"

[[record]]
molecule = "COc1ccc2c3ccnc(C)c3n(C)c2c1 [Compound 11b, 7-Methoxy-1,9-dimethyl-β-carboline]"
meas_value = "totally inactive"

